STUDY_SYSTEM: Cytochrome P450 2C19 (Homo sapiens)
ASSAY_REMARKS: Cytochrome P450 Family 2 Subfamily C Member 19 (CYP2C19) small molecule antagonists: luciferase reporter qHTS assay (AID 1671197); note: nearly all actives have a fitted effect of over 65% in size
TEST_PARAMETERS: P450-Glo CYP2C19 enzyme, luciferin luminescence, 1 h; series mostly up to 115 µM
Inconclusive results are not listed. The source made the active and inactive calls. Calls come from the whole dose curve; as a rule, active = well fitted inhibition curve with a large enough effect in the repeat runs; inconclusive = weak or mixed curves; inactive = no such curve, though single readings can be large or run the other way.
Reply using exactly one outcome from 1.0 (active), 0.0 (inactive)

Solved cases below.
O=C(O)CF ... 0.0
CCOP(=O)(O)OCC (tested in a mixture with another compound) ... 1.0
ClC(Cl)=C(Cl)C(Cl)=C(Cl)Cl ... 0.0

Can you look up the reported call for NC(=O)CN1CCCC1=O for me? 0.0

Could you kindly confirm the outcome this assay logged for CCC/C=N/O ? 0.0

For CCOC(=O)c1ccccc1N , what call appears in the results of this test? 0.0

For Cn1c(-c2ccccc2)cc(-c2ccccc2)[n+]1C , what call appears in the results of this test? 0.0

// param item: CCNCC ; yields the recorded call 0.0

Test call, this compound: O=[N+]([O-])/N=C1\NCCN1Cc1ccc(Cl)nc1 0.0

What was the test verdict on C[N+](C)(C)C ? 0.0

Dear colleague, could you share the recorded outcome for Nc1ccc([N+](=O)[O-])cc1N when you have a moment? 1.0

Lab log entry: CCCCOCC1CO1 (stereo unspecified) — outcome as called in the assay? 0.0

What did the test return for CN(C)c1nc(=O)n(C2CCCCC2)c(=O)n1C ? 0.0

Per the assay record, what outcome was assigned to CNC(=O)Oc1cccc2c1OC(C)(C)C2 ? 1.0

Hi, sorry to bother you, what did the test record for CC(C)CON=O ? 0.0

Which outcome did this test record for the compound COC(=O)Nc1nc2ccccc2[nH]1 ? 0.0

Identify the outcome logged in this assay for the compound shown: CCNc1nc(Cl)nc(NC(C)(C)C#N)n1 0.0
